tested on: Swiss mice; experiment: Acute hepatotoxicity assay, plasma liver markers; type: in vivo; settings: Swiss mice, single 100 mg/kg intraperitoneal, 24 hours later, plasma
measureName: AST plasma level (IU/I)
Answer in IU/I, number only, no unit symbol.

Here's what some known entries look like.
[
  {
    "compound": "O=C(O)c1cc(C2CC2)ccc1Nc1cnc(-c2c(F)cccc2F)nc1",
    "system": "Swiss mice",
    "AST plasma level, IU/I": 98
  },
  {
    "compound": "C/C(O)=C(\\C#N)C(=O)Nc1ccc(C(F)(F)F)cc1 [Teriflunomide, reference compound]",
    "system": "Swiss mice",
    "AST plasma level, IU/I": 655
  },
  {
    "compound": "Cc1ccc(Nc2ccc(-c3c(F)cccc3F)nc2)c(C(=O)O)c1",
    "system": "Swiss mice",
    "AST plasma level, IU/I": 96
  }
]

Summary for this compound, `Cc1ccc(Nc2cnc(-c3ccccc3)c(C)c2)c(C(=O)O)c1` : AST plasma level is 131

Summary for this compound, `Cc1ccc(Nc2cnc(-c3ccccc3Cl)c(C)c2)c(C(=O)O)c1` : AST plasma level is 95

Summary for this compound, `Cc1ccc(Nc2cnc(-c3ccccc3Cl)nc2)c(C(=O)O)c1` : AST plasma level is 113

Summary for this compound, `O=C(O)c1cc(C2CC2)ccc1Nc1cnc(-c2ccccc2F)nc1` : AST plasma level is 72

Summary for this compound, `O=C(O)c1cc(C2CC2)ccc1Nc1cnc(-c2ccccc2Cl)nc1` : AST plasma level is 105

Summary for this compound, `Cc1ccc(Nc2ccc(-c3ccccc3Cl)nc2)c(C(=O)O)c1` : AST plasma level is 83

Summary for this compound, `Cc1ccc(Nc2cnc(-c3ccccc3F)c(C)c2)c(C(=O)O)c1` : AST plasma level is 92

###

Quick record of pIC50 values for human DHODH (Homo sapiens).
A value of pIC50 is the negative decimal logarithm of a concentration given in moles per litre.

Here's what some known entries look like.
[
  {
    "lineNotation": "Cc1ccc(Nc2ccc(-c3ccccc3F)nc2)c(C(=O)O)c1",
    "measureName": "pIC50",
    "endpointValue": 7.04
  },
  {
    "lineNotation": "Cc1ccc(Nc2cnc(N3CCCCCC3)c(C)c2)c(C(=O)O)c1",
    "measureName": "pIC50",
    "endpointValue": 6.92
  }
]

Item `O=C(O)c1cc(C2CC2)ccc1Nc1ccc(-c2ccccc2F)nc1` was tested on human DHODH (Homo sapiens); the reported pIC50 is 8.10

Item `Cc1ccc(Nc2ccc(-c3ccncc3F)nc2)c(C(=O)O)c1` was tested on human DHODH (Homo sapiens); the reported pIC50 is 7.05

###

Quick record of pIC50 values for human DHODH (Homo sapiens, UniProt Q02127).
A value of pIC50 is the negative decimal logarithm of a concentration given in moles per litre.

Here's what some known entries look like.
[
  {
    "compound": "CCOc1cccc(-c2cc(C)c(Nc3ccc(C)cc3C(=O)O)cn2)c1 [Compound 44]",
    "measureName": "pIC50",
    "endpointValue": 7.11
  },
  {
    "compound": "COc1cccc(-c2ncc(Nc3ccc(C4CC4)cc3C(=O)O)cc2C(F)(F)F)c1 [Compound 107]",
    "measureName": "pIC50",
    "endpointValue": 8.15
  },
  {
    "compound": "COc1ncc(Nc2ccc(C3CC3)cc2C(=O)O)cc1-c1ccccc1 [Compound 7]",
    "measureName": "pIC50",
    "endpointValue": 7.31
  },
  {
    "compound": "COc1ccc(F)cc1-c1ncc(Nc2ccc(C)cc2C(=O)O)cc1C [Compound 148]",
    "measureName": "pIC50",
    "endpointValue": 7.34
  },
  {
    "compound": "Cc1ccc(Nc2cnc(-c3ccccc3Cl)c(C)c2)c(C(=O)O)c1 [Compound 71]",
    "measureName": "pIC50",
    "endpointValue": 7.85
  }
]

Item O=C(O)c1cc(C2CC2)ccc1Nc1cnc(-c2cccc(OC3CC3)c2)nc1 [Compound 22] was tested on human DHODH (Homo sapiens, UniProt Q02127); the reported pIC50 is 6.94

###

target: human DHODH (Homo sapiens, UniProt Q02127); experiment: Inhibition of human DHODH activity assay (DCIP chromogen reduction); assay type: biochemical; settings: enzyme extracts, 10 min at room temperature, absorbance at 600 nm, duplicate; read-out: hDHODH IC50
Sequence (Q02127 whole entry): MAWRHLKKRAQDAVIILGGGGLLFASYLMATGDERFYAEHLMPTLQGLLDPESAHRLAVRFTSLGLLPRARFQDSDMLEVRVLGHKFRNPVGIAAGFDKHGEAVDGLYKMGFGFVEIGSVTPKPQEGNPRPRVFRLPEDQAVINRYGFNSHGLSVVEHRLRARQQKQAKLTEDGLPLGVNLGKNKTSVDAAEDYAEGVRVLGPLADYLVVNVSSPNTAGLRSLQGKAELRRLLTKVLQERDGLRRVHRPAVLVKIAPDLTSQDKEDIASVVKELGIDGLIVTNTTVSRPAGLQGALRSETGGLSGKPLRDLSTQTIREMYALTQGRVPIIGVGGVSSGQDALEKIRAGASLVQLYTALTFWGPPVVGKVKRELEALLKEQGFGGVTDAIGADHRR
measureName: IC50 (nM)
Answer in nM, number only, no unit symbol.

Here's what some known entries look like.
[
  {
    "lineNotation": "Cc1ccc(Nc2cnc(-c3cccc(OC(C)C)c3)c(C)c2)c(C(=O)O)c1",
    "uom": "nM",
    "IC50": 11
  },
  {
    "lineNotation": "COc1ccc(F)c(-c2cc(C)c(Nc3ccc(C)cc3C(=O)O)cn2)c1",
    "uom": "nM",
    "IC50": 97
  },
  {
    "lineNotation": "O=C(O)c1cc(C2CC2)ccc1Nc1cnc(-c2ccccc2)c(C(F)(F)F)c1",
    "uom": "nM",
    "IC50": 2
  },
  {
    "lineNotation": "O=C(O)c1cc(C2CC2)ccc1Nc1cnc(-c2ccccc2F)nc1",
    "uom": "nM",
    "IC50": 10
  }
]

Now take the following compound into account.
Summary for this compound, `Cc1ccc(Nc2cnc(N3CCCCC3)c(C)c2)c(C(=O)O)c1` : IC50 is 41

###

target: human DHODH (Homo sapiens)
pIC50: recorded values
A value of pIC50 is the negative decimal logarithm of a concentration given in moles per litre.

[
  {
    "lineNotation": "COc1cccc(-c2ncc(Nc3ccc(C)cc3C(=O)O)cc2C(F)(F)F)c1",
    "system": "human DHODH (Homo sapiens)",
    "pIC50": 7.92
  },
  {
    "lineNotation": "O=C(O)c1cc(C2CC2)ccc1Nc1cnc(-c2ccccc2C2CC2)nc1",
    "system": "human DHODH (Homo sapiens)",
    "pIC50": 7.24
  }
]

Now take the following compound into account.
Summary for this compound, `CCOc1ccc(F)c(-c2ccc(Nc3ccc(C)cc3C(=O)O)cn2)c1` : pIC50 is 7.72
